# credit: the nanobody polyreactivity screen of Harvey et al. (2022)

test: yeast display, Sf9 membrane polyspecificity reagent, FACS + sequencing; frameworks hold sequencing errors
ASSAY_METRIC: polyreactivity (PSR sort gate)

Known results for sequences:
{"columns": ["ENTRY_SEQUENCE", "polyreactivity (PSR sort gate)"],
 "data": [
  ["QVQLVESGGGLVQAGGSLRLSCAAYGRIFAYYTMGWYRQAPGKERELVAAINQSGGSTYYADSVKGRFTISRDNAKNTVYFQMNSLKPEDTAVYYCAAKPYSLYARRYAYDYWGQGTQVTVSS", "low polyreactivity"],
  ["QVQLVESGGPLVQSGGSLRIICPASGSTFRYYSMGWYRQAPGKERELVAAISYGGGITNYADSVKGRLTISRDNAKNTVYLQMNSLKPEDTAVYYCAAYDRITRYDYWGQGTQVTVSS", "high polyreactivity"],
  ["QVQLVESGGGLVQAGGSLRLSCAASGYTFYKYAMGWYRQAPGKEREFVADITQSGGSTYYADSVKGRFTISRDNAKNTVYLEMNSLKPEDTAVYYCNAAYSYRPDPKGYDYWGQGTQVTVSS", "low polyreactivity"],
  ["QVQLVESGGGLVQAGGRLRLSCAASGRTLYRYVMVWYRQAPWKERELVAAISATAGSTYYADSVKGRFTISRDNAKNTVYLQMNSLTPEDTAVYYCAAEGYTLWYWLEFEYWGQGTQVTVSS", "high polyreactivity"],
  ["QVQLVESGGGLVQAGGSLRLSCAASGFIFLFYAMGWYRQAPGKERELVAAISSGVSTNYADSVKGRFTISRDNAKNTVYLQMNSLKPEDTAVYYCNTTQSTSLLYDYWGQGTQVTVSS", "low polyreactivity"],
  ["QVHLVESGGGLVQAGGSLRISCAASGSSFSIYAMGSYRQAPGKERELVAAITCTVGSTYYADSVKGRFTISRDIAKYTVYLPLNSLKPEDTAVYYFAARQVNYDYDFWGQGTQVTVSS", "low polyreactivity"],
  ["QVQLQESGSGLFQAGGSLRQSCAASGAIFPAYLMGWYRQAPGKERELVAGISYGSITYCADSVKGRFNISRDNAKNTVYLKMNSLKPEDTAVFGYWGQGTQVTVSS", "low polyreactivity"],
  ["QVQLVESGGGLVQAGGSLRLSCAASGRILDGYAMGWYRQAPGKERELVAAISSRGGRTYYADSVKGRFTISRDNAKNTVYLQMNSLKPEDTAVYYCAADFSKSRRPIRFYYWGQGTQVTVSS", "high polyreactivity"]
]}

Incoming: Determine its reported polyreactivity (PSR sort gate): `QVQLVESGGGLVQAGGSLRLSCAASGSIFGYYAMGWYRQAPGKERELVAAISGSGGSTYYADSVKGRFTISRDNAKNTVYLQMNSLKPEDTAVYYCDRVRGGYDKMYYWGQGTQVTVSS`
Outgoing: high polyreactivity

Incoming: Determine its reported polyreactivity (PSR sort gate): `QVQLVESGGGLVQAGGSLRLSCAASGRIFVYNTMGWYRQAPGKERELVAVISIGGSTKYADSVKGRFTISRDNAKNTVYLQMNSLKPEDTAVYYCNTDLAGLVYIAVDYWGQGTQVTVSS`
Outgoing: low polyreactivity

Incoming: Determine its reported polyreactivity (PSR sort gate): `QVQLVESGGGLVQAGGSLRLSCAGSGFIFNVYAMGWYRQAPGKARELVAAISRSGGSTYYADSVKGRFTISRDNAKNTVYLQLNSLKPEDTAVYYCNARTPPSYYDMGYWGQGTQVTVSS`
Outgoing: high polyreactivity

* * *

test: yeast display, Sf9 membrane polyspecificity reagent, FACS + sequencing; frameworks hold sequencing errors
ASSAY_METRIC: polyreactivity (PSR sort gate)

Known results for sequences:
{"columns": ["ENTRY_SEQUENCE", "polyreactivity (PSR sort gate)"],
 "data": [
  ["QVQLVESGGGLVQAGGILRLSCAASGLTYFYYAMGWYRQAPGKESELVAAISWSGGRTYYADSVKGRFTISRDNAKNTVYLPMNSLKPEDTAVYYCAADYITAHSSYSTYGYWGQGTQVTVSS", "low polyreactivity"],
  ["QVQLVESGGGLVQAGGSLRLSCAASGSTYANAMGWYRQAPGKERELVAAITDNGGRTYYADSVKGRFTISRDNAKNTFYLQMNSLKPEDTAVYYCAARSSVWGQGTQVTVSS", "low polyreactivity"],
  ["QVQLVESGGGLVQAGGSLRLSCAASGRSFPAYAMGWYRQAPGKERELVAAISQSGGSTYYADSVKGRFTISRDNAKNTVYLQMNSLKPEDTAVYYCAAGWYVSYYWYDYWGQGTQVTVSS", "high polyreactivity"],
  ["QVQLVESGGGLVQAGGSLRLSCAASGRIFSNYAMGWYRQAPGKERELVAAISYSGDSTYYADSVKGRFTISRDNAKNTVYLQMNSLKPEDTAVYYCAAVRSYRRYPQSSDLYYYWGQGTQVTVSS", "high polyreactivity"]
]}

Let us move to another entry and its polyreactivity (PSR sort gate).
Incoming: Determine its reported polyreactivity (PSR sort gate): `QVQIVDSGGGLVQAGGSLRLSCDASGRLISRKAMGWYRQAPGKERELVAAITSGGSTYYADSVKGRFTISRDNAKNTVYLQMNSLKPEDTAVYYCAAVYRGVDSRWYCYDYWGQGTQVTVSS`
Outgoing: low polyreactivity

* * *

experiment: yeast display, Sf9 membrane polyspecificity reagent, FACS + sequencing; frameworks hold sequencing errors
ASSAY_METRIC: polyreactivity (PSR sort gate)

Known results for sequences:
{"columns": ["ENTRY_SEQUENCE", "polyreactivity (PSR sort gate)"],
 "data": [
  ["QVQLVESGGGIVQAGGSLRLSCAASGSIFKTNPMGWYRQAPGKERELVADISPSSGRTYYADSVKGRFTISRDNSKNTVYLQMNCLKPDDTAVYYCNRLSRRGYDYWGQGTQVTVSS", "high polyreactivity"],
  ["QVQLVESGGGLVQAGGSLRLSCAASGLTFGGNAMGWYRQAPGKERELVAAISGSGGRTYYADSVKGRFTISRDNEKNTVYLQMNSLKPEDTAVYYCNAATNRRTSDYWGQGTQVTVSS", "high polyreactivity"],
  ["QVQLVESGGGLVQAGGSLRLSCAASGRIFVVYAMGWYRQAPGKERELVASISRGGRTYYADSVKGRFTISRDNAKNTVYLQMNSLKPEDTAVYDCAVVVYLKNRDLFDYWGQGTQVTVSS", "low polyreactivity"],
  ["QVQLVESGGGLVQAGGILRLSCAASGSIFQYNAKGWYIQEPGKEREFVAAISGSGTTTYYADSVKGRFTISRDNAKNTVYLQMNSLKPEDTAVYYCAKAIRHYPDVAYNAWGQGSQVTVSS", "high polyreactivity"]
]}

Incoming: Determine its reported polyreactivity (PSR sort gate): `QVQLVESGGGLVQAGGSLRLSCAASGRIFPYYTMGWYREAPGKERELVATITTGGSTNYADSVKGRFTISRDNAENTVYLQMNSLKPEDTAVYYCNKDGVVEVRFTGRQEYDYWGQGTQVTVSS`
Outgoing: low polyreactivity

* * *

test: yeast display, Sf9 membrane polyspecificity reagent, FACS + sequencing; frameworks hold sequencing errors
ASSAY_METRIC: polyreactivity (PSR sort gate)

Known results for sequences:
{"columns": ["ENTRY_SEQUENCE", "polyreactivity (PSR sort gate)"],
 "data": [
  ["QVQLVESGGGFVQAGGSLRLSCVPSGRTYEPYAMGWYRQAPGKERELVAAIRWSGDRTYYADSVKGRFTISRDFAKITVYLHMISLKPEDTAVYYCAADYRARRWGMDYWGQGTQVTVSS", "high polyreactivity"],
  ["QVQLVESGGGLVQAGGSHRLSCAASGITFYWYAMGWYRQAPGKERELVAAITRSVGSTYYADSVKGRFTISRDNAKNTVYLQMNSLKPEDTAVYYCAADFYYYGFDYWGQGTQVTVSS", "low polyreactivity"],
  ["QVQLVESGGGLVQAGGSHRLSSAASVRIFRGYAMGWYRPAPGKERELVAVISYSGTRTYYADSVKGRFTISRDNAKNTVYLQMNSLKPEDTAVYYCNASANGFKEGYWGQGTQVTVSS", "high polyreactivity"],
  ["QVQLVESGGGLVQAGGSLRLSCAASGFIFYSNAMGWYRQAPGKDRELVASITGDGGTTYYADSVKGRFTISRDKAKNTVYLQMNSLKPEATAVYYCAKDYIYRGYYTDFRYEDYDYWGPGTQVTVSS", "low polyreactivity"],
  ["QVQLVESGGGLVQAGGSLRLSCAASGYIFYRNAMGWYRQAPGKEREFVAAISSSGVSTYYADSVKGRFTISRDNAKNTVYLQMNSLKPEDTAVYYCAASYLTWKRRYDYWGQGTQVTVSS", "high polyreactivity"],
  ["QVQLVESGGGLDQAGGSLRLSCAASGMTFHPYAMGWYRQAPGKERELVAAISSRGTSTYYADSVKGRFTISRDIAKNTVYLQMNSLKPEDTAVYYCAAEVITIGLYRYGYWGQGTQVTVSS", "high polyreactivity"]
]}

Let us move to another entry and its polyreactivity (PSR sort gate).
Incoming: Determine its reported polyreactivity (PSR sort gate): `QVQLVESGGGLVQAGGSLRLSCAASGFTFSNYAMGWYRQAPGKERELVAAISRSGGSTYYADSVKGRFTISRDNAKNTVYLKMNSLKPEDTAVYYCNAVRYHARSGWSDYWGQGTQVTVSS`
Outgoing: high polyreactivity
